Target: HLA-B*35:01
Experiment: IEDB peptide-MHC binding, purified MHC/direct/fluorescence; filed as Kd, often an IC50 or EC50 that approximates it; bounds were set here for any values at or beyond the usual limits of such assays
Conditions: source organism: Vibrio vulnificus
ASSAY_ENDPOINT: Kd (µM)

[[record]]
input_sequence = "AFDWPELEF"
assay_endpoint = "Kd"
test_value = 0.0772


---

Biological target: HLA-B*07:02
Assay: IEDB peptide-MHC binding, purified MHC/competitive/fluorescence; filed as Kd, often an IC50 or EC50 that approximates it; bounds were set here for any values at or beyond the usual limits of such assays
Conditions: source organism: Influenza A virus (A/nt/60/1968(H3N2))
pKd: −log10 of the molar value.
ASSAY_ENDPOINT: pKd

[[record]]
input_sequence = "YPRYPGVRC"
assay_endpoint = "pKd"
test_value = 7.99

